- System: EKVX NSCLC
- PROCEDURE DETAILS: NCI tumour cell line growth inhibition, 48 h
I'd be grateful if you could share measured TGI for these entries.

Consider the molecule CC(C)/C(Cl)=N\OC(NC(=O)P(=O)(c1ccccc1)c1ccccc1)(C(F)(F)F)C(F)(F)F and give its measured TGI. 63.2 µM

Consider the molecule CC(Oc1ccccc1Cl)C(=O)NN1C(=O)CSC1c1ccccc1 (stereo not given) and give its measured TGI. > 100 µM

Consider the molecule Cc1c(-c2ccnc(N)n2)c2c(n1Cc1ccccc1)C(=O)c1ccccc1C2=O and give its measured TGI. 41.2 µM

Consider the molecule O=c1ncccn1C1OC(CO)C(O)C1O (stereo not given) and give its measured TGI. > 100 µM

Consider the molecule CC(C)C(C/C=C1\CC(CO)(COC(=O)C2CCCCC2)OC1=O)C(C)C (stereo not given) and give its measured TGI. 41.2 µM
